Measured target: hNAAA (Homo sapiens (Human))
Protocol text: Fluorescence-based NAAA inhibition assay with fluorogenic substrate PAMCA
# Lookup of reported IC50 keyed by entry

Worked cases, IC50 given:
                                   compound       obs_value
0  COc1cccc(-c2ccc(COC3(c4ccccc4)CN(C#N)C3)cc2)c1    10 to 100 nM
1  COc1ccc(-c2ccc(COC3CN(C#N)C3)cc2)c(OC)c1    10 to 100 nM
2  CC(C)Oc1ccc(-c2ccc(CO[C@H]3C[C@@H](N=C=S)C3)c(F)c2)cc1F  110 to 1000 nM
3             S=C=NCCCOCc1ccc(Oc2ccccc2)cc1    10 to 100 nM
4  Cn1cc(-c2ccc(C(OC3CN(C#N)C3)c3ccccc3)cc2)cn1 (stereo not drawn)    10 to 100 nM

Look up IC50: COc1cccc(-c2ccc(C3(COC4CN(C#N)C4)CC3)cc2)c1 10 to 100 nM

Look up IC50: N#CN1CC(OCc2ccc(-c3cccc(C(F)(F)F)c3)cc2)C1 10 to 100 nM

Look up IC50: N#CN1CC(COCc2ccc(-c3ccccc3)cc2)C1 10 to 100 nM

Look up IC50: N#Cc1ncc(OCCCCCCc2ccccc2)cn1 110 to 1000 nM

====

Measured target: hNAAA (Homo sapiens (Human), UniProt Q02083)
Sequence (Q02083 29-125): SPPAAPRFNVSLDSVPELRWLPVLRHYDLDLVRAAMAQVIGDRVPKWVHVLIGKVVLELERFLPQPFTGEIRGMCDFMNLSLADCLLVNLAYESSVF
Sequence (Q02083 126-359): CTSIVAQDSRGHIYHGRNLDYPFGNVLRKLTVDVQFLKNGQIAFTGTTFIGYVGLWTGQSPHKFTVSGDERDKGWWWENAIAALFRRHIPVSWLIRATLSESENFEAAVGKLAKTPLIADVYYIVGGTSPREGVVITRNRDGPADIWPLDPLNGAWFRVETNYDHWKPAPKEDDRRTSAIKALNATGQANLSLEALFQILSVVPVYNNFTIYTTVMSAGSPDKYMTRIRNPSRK
Protocol text: Fluorescence-based NAAA inhibition assay with fluorogenic substrate PAMCA
Measurement setup: read-out: NAAA Inhibition IC50 μM; purified hNAAA, PAMCA 5 μM, pH 4.5
Assay readout: IC50

>>> print(df.to_string())
                                   compound  assay_readout  obs_value
0  N#C[C@H]1C[C@@H](OCc2ccc(-c3ccccc3)cc2)C1 [Example 108]           IC50     > 1 µM
1  S=C=NCCCCCCCc1ccc2ccccc2c1 [Example 5, 2-(7-Isothiocyanatoheptyl)naphthalene]           IC50     > 1 µM

Look up IC50: COc1ncccc1-c1ccc(COC2CC(N=C=S)C2)c(F)c1 (centres unmarked) [Example 41] 0.11 to 1 µM

Look up IC50: O=C(OCc1ccccc1)N1CCC(CN=C=S)CC1 [Example 13] > 1 µM

====

Measured target: hNAAA (Homo sapiens (Human), UniProt Q02083)
Protocol text: Fluorescence-based NAAA inhibition assay with fluorogenic substrate PAMCA
# Lookup of reported IC50 keyed by entry

Worked cases, IC50 given:
>>> print(df.to_string())
                                   compound  assay_readout       obs_value
0    COc1cccc(OC)c1-c1ccc(COC2CN(C#N)C2)cc1           IC50  0.01 to 0.1 µM
1  COc1ccccc1-c1cc(Oc2ccccc2)ccc1COC1CN(C#N)C1           IC50  0.01 to 0.1 µM
2  Cc1ccc(-c2ccc(CO[C@H]3C[C@H](N=C=S)C3)cc2)cc1           IC50    0.11 to 1 µM
3  Cc1noc(C)c1-c1ccc(C(OC2CN(C#N)C2)c2ccccc2)cc1 (centres unmarked)           IC50  0.01 to 0.1 µM
4          N#CN1CC(OCc2ccc(Oc3ccccc3)cc2)C1           IC50  0.01 to 0.1 µM

Look up IC50: S=C=NCCCCCCCCCc1ccccc1 0.01 to 0.1 µM

Look up IC50: N#CN1CC(OCc2ccc(-c3ccc(F)cc3)cc2)C1 0.01 to 0.1 µM

Look up IC50: N#CN1CC(OCc2ccc(-c3cc(C(F)(F)F)cc(C(F)(F)F)c3)cc2)C1 0.01 to 0.1 µM

Look up IC50: COc1cccc(-c2ccc(COC3CN(C#N)C3)cc2)c1OC 0.01 to 0.1 µM

Look up IC50: COc1cccc(-c2ccc(COC3CN(C#N)C3)c(OC)c2)c1 0.01 to 0.1 µM

Look up IC50: S=C=NCCCCCCCCCCc1ncccn1 0.01 to 0.1 µM

Look up IC50: COc1ccccc1-c1ccc(COC2CN(C#N)C2)cc1 0.01 to 0.1 µM

Look up IC50: S=C=N[C@H]1C[C@@H](OCc2ccc(-c3ccccc3)cc2)C1 0.11 to 1 µM

Look up IC50: COc1cccc(-c2ccc(COC3CN(C#N)C3)c(F)c2)c1 0.01 to 0.1 µM

Look up IC50: COc1cccc(-c2cc(Oc3ccccc3)ccc2COC2CN(C#N)C2)c1 0.01 to 0.1 µM

====

# Lookup of reported IC50 keyed by entry
Measured target: hNAAA (Homo sapiens (Human), UniProt Q02083)
Protocol text: Fluorescence-based NAAA inhibition assay with fluorogenic substrate PAMCA
Measurement setup: read-out: NAAA Inhibition IC50 μM; purified hNAAA, PAMCA 5 μM, pH 4.5

Worked cases, IC50 given:
                                   compound     obs_value
0  CCN(Cc1ccc(-c2ccc3c(c2)OCO3)cc1)C1CC(N=C=S)C1 (stereo not shown)  0.11 to 1 µM
1                         S=C=NCCCCc1ccccc1        > 1 µM
2  Cc1noc(C)c1-c1ccc(COC2CC(N=C=S)C2)c(F)c1 (stereo not shown)        > 1 µM
3  S=C=N[C@H]1C[C@@H](OCc2ccc(Oc3ccccc3)cc2-c2ccccc2)C1        > 1 µM
4  CN(Cc1ccc(-c2ccc3c(c2)OCO3)cc1)C1CC(N=C=S)C1 (stereo not shown)        > 1 µM
5  Cn1cc(-c2ccc(COC3CC(N=C=S)C3)c(F)c2)cn1 (stereo not shown)  0.11 to 1 µM

Look up IC50: N#Cc1ccc(OCc2ccc(-c3ccccc3)cc2)cn1 > 1 µM

Look up IC50: COc1ccc(-c2ccc(F)c(CO[C@H]3C[C@@H](N=C=S)C3)c2)cc1F > 1 µM

Look up IC50: Fc1cc(Br)ccc1COC1CC(N=C=S)C1 (stereo not shown) 0.11 to 1 µM

Look up IC50: COc1cccc(-c2ccc(COC3CN(CC#N)C3)cc2)c1 > 1 µM

Look up IC50: N#Cc1cccc(C(=O)OCCCCCc2ccccc2)n1 [Example 114, 5-phenylpentyl 6-cyanopicolinate] > 1 µM

====

Measured target: hNAAA (Homo sapiens (Human))
Protocol text: Fluorescence-based NAAA inhibition assay with fluorogenic substrate PAMCA
Measurement setup: read-out: NAAA Inhibition IC50 μM; purified hNAAA, PAMCA 5 μM, pH 4.5
# Lookup of reported IC50 keyed by entry

>>> print(df.to_string())
                          compound  obs_value
0  FC(F)(F)c1ccccc1CCCCCCCCCCN=C=S     > 1 µM

Look up IC50: N#CN1CCC(Oc2ccc(Br)cc2)CC1 > 1 µM

Look up IC50: COc1ccc(-c2ccc(COC3CCC(N=C=S)CC3)cc2)cc1F (stereo not shown) 0.11 to 1 µM

Look up IC50: N#Cc1ncc(OCc2ccc(-c3ccccc3)cc2)cc1F > 1 µM

Look up IC50: COc1ccc(CCCCCCCCCCN=C=S)cc1 > 1 µM

Look up IC50: S=C=N[C@H]1C[C@H](OCc2ccc(-c3ccccc3)cc2)C1 > 1 µM

Look up IC50: N#C[C@H]1C[C@H](OCc2ccc(-c3ccccc3)cc2)C1 > 1 µM

Look up IC50: S=C=NCCN1CCC(Cc2ccccc2)CC1 > 1 µM

Look up IC50: Fc1cc(-c2cccc(C(F)(F)F)c2)ccc1COC1CC(N=C=S)C1 (stereo not shown) 0.01 to 0.1 µM

Look up IC50: COc1ccc(-c2ccc(COC3CC(N=C=S)C3)nc2)cc1F (stereo not shown) 0.01 to 0.1 µM

Look up IC50: N#Cc1ncc(F)cc1OCc1ccc(-c2ccccc2)cc1 > 1 µM

Look up IC50: N#Cc1ccc(OCc2ccc(Oc3ccccc3)cc2Br)cn1 > 1 µM

====

Measured target: hNAAA (Homo sapiens (Human), UniProt Q02083)
Protocol text: Fluorescence-based NAAA inhibition assay with fluorogenic substrate PAMCA;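 note: compound preincubated 15 min at room temperature with hNAAA, then PAMCA added at 5 µM, reacted 120 min at 37 °C, AMC release read by fluorescence (ex 360, em 460 nm)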
pIC50: −log10 of the molar value.
# Lookup of reported pIC50 keyed by entry

Notebook entry, hNAAA (Homo sapiens (Human), UniProt Q02083) assay: pIC50 of COc1cccc(-c2ccc(COC3CN(C#N)C3)cc2)c1 = ? 7.00 to 8.00

Notebook entry, hNAAA (Homo sapiens (Human), UniProt Q02083) assay: pIC50 of Cc1ccc(-c2ccc(CO[C@H]3C[C@@H](N=C=S)C3)cc2)cc1 = ? 7.00 to 8.00

Notebook entry, hNAAA (Homo sapiens (Human), UniProt Q02083) assay: pIC50 of S=C=N[C@H]1C[C@@H](OCc2ccc(Oc3ccccc3)cc2Br)C1 = ? 6.00 to 6.96

Notebook entry, hNAAA (Homo sapiens (Human), UniProt Q02083) assay: pIC50 of Fc1cc(-c2ccc3c(c2)OCO3)ccc1CO[C@H]1C[C@@H](N=C=S)C1 = ? 7.00 to 8.00

Notebook entry, hNAAA (Homo sapiens (Human), UniProt Q02083) assay: pIC50 of S=C=NC[C@H]1C[C@@H](OCc2ccc(-c3ccccc3)cc2)C1 = ? 6.00 to 6.96
